System: MKN-45 cells
assayRemarks: In vitro antitumor activity, MTS cell proliferation
Assay type: cell-based
particulars: MKN-45, gastric cancer, 72 hours
Quick list: pIC50 per entry.
Value format note: pIC50 is -log10 of concentration (mol/L); just state the number.

Record excerpt, results attached:
smilesText: O=C1Nc2ccc(S(=O)(=O)NC3CCCCC3)cc2C1=Cc1nc2ccccc2[nH]1
reportedEndpoint: pIC50
value: 6.03
//
smilesText: O=C1Nc2ccc(S(=O)(=O)Nc3ccc(CCO)cc3)cc2C1=Cc1nc2ccccc2[nH]1
reportedEndpoint: pIC50
value: 5.95
//
smilesText: O=C1Nc2ccc(S(=O)(=O)Nc3ccc(F)c(Cl)c3)cc2C1=Cc1nc2ccccc2[nH]1
reportedEndpoint: pIC50
value: 5.67
//
smilesText: O=C1Nc2ccc(S(=O)(=O)Nc3ccc(Cl)cc3)cc2C1=Cc1nc2ccccc2[nH]1
reportedEndpoint: pIC50
value: 5.86
//
smilesText: O=C1Nc2ccc(S(=O)(=O)Nc3ccc4ccccc4c3)cc2C1=Cc1nc2ccccc2[nH]1
reportedEndpoint: pIC50
value: 5.71

# input Tell me the measured pIC50 of CCOc1ccc(NS(=O)(=O)c2ccc3c(c2)C(=Cc2nc4ccccc4[nH]2)C(=O)N3)cc1 , please.
# output 5.76

# input Reported pIC50 for Cc1ccc(NS(=O)(=O)c2ccc3c(c2)C(=Cc2nc4ccccc4[nH]2)C(=O)N3)cc1 : what is it?
# output 5.69

# input Find the recorded pIC50 belonging to CN(c1ccccc1)S(=O)(=O)c1ccc2c(c1)C(=Cc1nc3ccccc3[nH]1)C(=O)N2 and report it.
# output 5.89

----------
System: protein tyrosine kinase (PTK)
assayRemarks: PTK activity assay with mouse brain tissue extract (ELISA, OD 492 nm)
Type: biochemical
particulars: at 400 μM
reportedEndpoint: Inhibition rate on tyrosine kinase

# example entries with known answers
smilesText: O=C1Nc2ccc(S(=O)(=O)Nc3ccc4ccccc4c3)cc2C1=Cc1nc2ccccc2[nH]1
value: 51.2%
--
smilesText: Cc1ccc(NS(=O)(=O)c2ccc3c(c2)C(=Cc2nc4ccccc4[nH]2)C(=O)N3)cc1
value: 49.9%
--
smilesText: O=C1Nc2ccc(S(=O)(=O)Nc3ccc(Cl)cc3)cc2C1=Cc1nc2ccccc2[nH]1
value: 55.0%
--
smilesText: O=C1Nc2ccc(S(=O)(=O)Nc3ccc(F)c(Cl)c3)cc2C1=Cc1nc2ccccc2[nH]1
value: 45.2%

Below: the item to evaluate.
# input Report Inhibition rate on tyrosine kinase for Cc1ccccc1NS(=O)(=O)c1ccc2c(c1)/C(=C/c1nc3ccccc3[nH]1)C(=O)N2 please.
# output 53.4%

----------
Test system: Ba/F3-Tpr-Met cells
assayRemarks: In vitro antitumor activity, MTS cell proliferation
Assay type: cell-based
particulars: pre-B cell, 72 hours
The entries below come with measured IC50 values attached.
Report the value in µM with no unit label.

smilesText: CN(c1ccccc1)S(=O)(=O)c1ccc2c(c1)C(=Cc1nc3ccccc3[nH]1)C(=O)N2
IC50 / µM: 3.87
--
smilesText: O=C1Nc2ccc(S(=O)(=O)Nc3ccc(Cl)cc3)cc2C1=Cc1nc2ccccc2[nH]1
IC50 / µM: 4.21
--
smilesText: O=C1Nc2ccc(S(=O)(=O)Nc3ccc(F)c(Cl)c3)cc2C1=Cc1nc2ccccc2[nH]1
IC50 / µM: 5.93
--
smilesText: Cc1ccccc1NS(=O)(=O)c1ccc2c(c1)/C(=C/c1nc3ccccc3[nH]1)C(=O)N2
IC50 / µM: 4.79
--
smilesText: O=C1Nc2ccc(S(=O)(=O)Nc3ccc(CCO)cc3)cc2C1=Cc1nc2ccccc2[nH]1
IC50 / µM: 3.11

# input Can you look up IC50 on Ba/F3-Tpr-Met cells for O=C1Nc2ccc(S(=O)(=O)Nc3ccc4ccccc4c3)cc2C1=Cc1nc2ccccc2[nH]1 ?
# output 5.31

# input Record CCOc1ccc(NS(=O)(=O)c2ccc3c(c2)C(=Cc2nc4ccccc4[nH]2)C(=O)N3)cc1 : what is its IC50 with Ba/F3-Tpr-Met cells?
# output 4.91

# input Field: IC50 (Ba/F3-Tpr-Met cells). Entry: O=C1Nc2ccc(S(=O)(=O)NC3CCCCC3)cc2C1=Cc1nc2ccccc2[nH]1
# output 2.54

# input What measured IC50 is associated with Cc1ccc(NS(=O)(=O)c2ccc3c(c2)C(=Cc2nc4ccccc4[nH]2)C(=O)N3)cc1 on Ba/F3-Tpr-Met cells?
# output 5.68
